Data origin: ChEMBL document CHEMBL3244216

System: Staphylococcus aureus
measurement_description: Antibacterial activity against streptomycin, neomycin, kanamycin-resistant Staphylococcus aureus 2314 assessed as growth inhibition by agar dilution method
Assay type: functional
Reported MIC values for the following molecules.
Write down the numeric answer in µg/mL and omit the unit.

Please review the following examples before continuing.
CCC(=O)N[C@H]1[C@H](O)[C@@H](O)[C@@H](O[C@@H]([C@H](N)[C@H](O)CO)[C@@H](O)CN)O[C@@H]1CO = 200
CCC(=O)N[C@H]1[C@H](O)[C@@H](O)[C@@H](O[C@@H]([C@H](N)[C@H](O)CO)[C@@H](O)CN)O[C@@H]1CCl = 200

For the next question, use this molecule.
Recorded MIC for CCCN[C@H]1[C@H](O)[C@@H](O)[C@@H](O[C@@H]([C@H](N)[C@H](O)CO)[C@@H](O)CN)O[C@@H]1CO , please?
100

###

Test system: Staphylococcus aureus
measurement_description: Antibacterial activity against drug-sensitive Staphylococcus aureus 2985 assessed as growth inhibition by agar dilution method
Type: functional
Parameters: unit not given here
Reported MIC values for the following molecules.
Form rule: numeric answer, no unit written next to it.

CCCC(=O)N[C@H]1[C@H](O)[C@@H](O)[C@@H](O[C@@H]([C@H](N)[C@H](O)CO)[C@@H](O)CN)O[C@@H]1CO = 200
CC(=O)N[C@H]1[C@H](O)[C@@H](O)[C@@H](O[C@@H]([C@H](N)[C@H](O)CO)[C@@H](O)CN)O[C@@H]1CO = 200
CCCN[C@H]1[C@H](O)[C@@H](O)[C@@H](O[C@@H]([C@H](N)[C@H](O)CO)[C@@H](O)CN)O[C@@H]1CO = 50
CCC(=O)N[C@H]1[C@H](O)[C@@H](O)[C@@H](O[C@@H]([C@H](N)[C@H](O)CO)[C@@H](O)CN)O[C@@H]1CCl = 50

For the next question, use this molecule.
Recorded MIC for CCC(=O)N[C@H]1[C@H](O)[C@@H](O)[C@@H](O[C@@H]([C@H](N)[C@H](O)CO)[C@@H](O)CN)O[C@@H]1CO , please?
100

###

Reported MIC values for the following molecules.
System: Pseudomonas aeruginosa
measurement_description: Antibacterial activity against kanamycin and gentamicin-resistant Pseudomonas aeruginosa 3033 assessed as growth inhibition by agar dilution method
Assay type: functional
Write down the numeric answer in µg/mL and omit the unit.

NC[C@H]1O[C@H](O[C@H]2[C@H](O)[C@@H](O[C@H]3O[C@H](CO)[C@@H](O)[C@H](N)[C@H]3O)[C@H](N)C[C@@H]2N)[C@H](O)[C@@H](O)[C@@H]1O = 100

For the next question, use this molecule.
Recorded MIC for CCC(=O)N[C@H]1[C@H](O)[C@@H](O)[C@@H](O[C@@H]([C@H](N)[C@H](O)CO)[C@@H](O)CN)O[C@@H]1CO , please?
100
